Would you mind telling me the reported Activity of each entry?
Test system: PC-12
Assay: Neuroprotective activity against glutamate-induced apoptosis in rat PC12 cells at 10 uM after 24 hrs by hoechst 33342 and propidium iodide double staining based fluorescence analysis (reference value: 43.97 +/- 2.69%)
Assay type: functional
Could you give me the number in %? Just the number is fine.

stdin: Request the reported Activity associated with COC(=O)c1ccccc1CN1CCN(C(=O)COc2ccc3ccccc3c2)CC1
stdout: 21.81

stdin: Consider next the compound COc1ccccc1OCC(=O)N1CCN(C(c2ccc(F)cc2)c2ccc(F)cc2)CC1 in the same way.
stdout: 19.18

stdin: And O=C(COc1ccc(Br)cc1)N1CCN(C(c2ccc(F)cc2)c2ccc(F)cc2)CC1 ?
stdout: 24.65

stdin: Queued: CCOc1ccccc1CN1CCN(C(=O)COc2ccc3ccccc3c2)CC1
stdout: 16.21
